- Tested on: DSG1
- assay method text: Modulation of DSG1 gene expression of keratinocytes (real-time qPCR, RQ)
- Assay type: cell-based, human
- Set-up: key: relative quantity vs DMSO vehicle control (qPCR)
- test parameters: nHEK, 24 h, 0.0005%; Example 1
value kind: RQ value DSG1
// response body must contain only the number

## Task Entry under review: "O=C(/C=C/c1ccc(O)c(O)c1)O[C@@H]1C[C@](OC(=O)/C=C/c2ccc(O)c(O)c2)(C(=O)O)C[C@@H](O)[C@H]1O" . Reported RQ value DSG1?
## Result 5.3

## Task Further, for "O=C(/C=C/c1ccc(O)c(O)c1)O[C@H]1[C@H](O)C[C@](O)(C(=O)O)C[C@H]1OC(=O)/C=C/c1ccc(O)c(O)c1" ?
## Result 10.6

## Task Further, for "O=C(/C=C/c1ccc(O)c(O)c1)O[C@@H]1[C@H](O)C[C@@](O)(C(=O)O)C[C@H]1OC(=O)/C=C/c1ccc(O)c(O)c1" ?
## Result 14.9

## Task Further, for O=C(/C=C/c1ccc(O)c(O)c1)O[C@@H]1CC(O)(C(=O)O)C[C@@H](OC(=O)/C=C/c2ccc(O)c(O)c2)C1O (stereo partly shown) ?
## Result 12.2
